# experimental.protocol: PK of L4L-121 versus free TC in healthy mice
# conditions.used: mouse, in vivo, one intravenous injection 2.5 mg/kg (normalized to TC), read-out: exposure (AUC)
quantity.kind: AUC (µg·h/mL)
Answers are plain numbers, in µg·h/mL.

Summary for this molecule, CC(/C=C/C=C(\C)C(=O)O)=C\C=C\C=C(C)\C=C\C=C(/C)C(=O)O [free TC, trans-crocetin free acid] : AUC is 2.7
